These measurements were taken from paper PMC3158291.

Experiment: Stability in mouse liver microsomes
Type: in vitro ADME
Settings: calculated from intrinsic clearance in mouse liver microsomes, method of ref 21
For each record, check the reported Predicted hepatic extraction ratio: if it is below 90% write label 1, else write label 0.

# check: Predicted hepatic extraction ratio < 90% for O=[N+]([O-])c1cn2c(n1)OC[C@@H](NCc1ccc(OC(F)(F)F)cc1F)C2 [Compound 41a] label 1

Confirm or reject: Predicted hepatic extraction ratio of CCCN(Cc1ccc(OC(F)(F)F)cc1)[C@@H]1COc2nc([N+](=O)[O-])cn2C1 lies strictly below 90% label 0

Please indicate whether the reported Predicted hepatic extraction ratio of CC(C)N(Cc1ccc(OC(F)(F)F)cc1)[C@@H]1COc2nc([N+](=O)[O-])cn2C1 is strictly below 90%. label 0

Below 90% on Predicted hepatic extraction ratio? Entry O=[N+]([O-])c1cn2c(n1)OC[C@@H](NCc1ccc(OC(F)(F)F)cc1O)C2 [Compound 32g] label 1

# TODO verify Predicted hepatic extraction ratio < 90% strictly for this compound: O=[N+]([O-])c1cn2c(n1)OC[C@@H](NCc1ccc(OC(F)(F)F)cc1OC1CC1)C2 [Compound 32f] label 1

Find out if reported Predicted hepatic extraction ratio for CN(Cc1ccc(OC(F)(F)F)cc1)[C@@H]1COc2nc([N+](=O)[O-])cn2C1 is less than 90% label 1

Record O=[N+]([O-])c1cn2c(n1)OC[C@@H](NCc1ccc(OC(F)(F)F)c(Oc3ccccc3)c1)C2 [Compound 56e] : is its Predicted hepatic extraction ratio strictly below 90%? label 1

Criterion: Predicted hepatic extraction ratio strictly below 90%. Is it met by O=[N+]([O-])c1cn2c(n1)OC[C@@H](NCc1ccc(OC(F)(F)F)cc1Cl)C2 [Compound 41b] ? label 1

Is the reported Predicted hepatic extraction ratio for O=[N+]([O-])c1cn2c(n1)OC[C@@H](NCc1ccc(OC(F)(F)F)cc1OCC1CC1)C2 [Compound 32e] strictly below 90%? label 0

Is it true that Predicted hepatic extraction ratio reported for O=[N+]([O-])c1cn2c(n1)OC[C@@H](NCc1ccc(OC(F)(F)F)c(F)c1)C2 [Compound 56a] is less than 90%? label 1
